- methodNotes: CHI Log D procedure
- Type: physicochemical
- assayConditions: pH 7.4, CHI Log D
attributeMeasured: chromatographic logD
Lab note: record the figure alone, no unit after it.

>  <molecule>
CC(=O)N1CCC[C@]12CC=CCCCC1(CCCC=CCCCCCC[C@@](C)(C(=O)N[C@@H](Cc3ccccc3C(F)(F)F)C(=O)N[C@@H](Cc3csc4ccccc34)C(=O)N[C@@H](CCC(N)=O)C(N)=O)NC(=O)[C@H](CC(N)=O)NC(=O)[C@H](Cc3ccccc3)NC(=O)[C@H](C)NC(=O)[C@H](C)NC(=O)[C@H](CN(CC(=O)O)CC(F)(F)F)NC(=O)[C@H](CC(=O)O)NC1=O)NC(=O)[C@H](CC(C)(C)C)NC(=O)[C@H](CC(=O)O)NC2=O (some centres unmarked) [I-934]

>  <chromatographic logD>
2.82

$$$$

Enquiry: Return reported chromatographic logD; argument: CC(=O)N1CCC[C@]12CC=CCCCC1(CCCC=CCCCOC(=O)N3CC[C@@](C(=O)N[C@@H](Cc4ccccc4Cl)C(=O)N[C@@H](Cc4csc5ccccc45)C(=O)N[C@@H](CCC(N)=O)C(N)=O)(C3)NC(=O)[C@H](CC(C)C)NC(=O)[C@H](Cc3ccc(C(F)(F)F)cc3)NC(=O)[C@H](C)NC(=O)[C@H](C)NC(=O)[C@H](CC(=O)O)NC(=O)[C@H](CC(=O)O)NC1=O)NC(=O)[C@H](CC(C)(C)C)NC(=O)[C@H](CC(=O)O)NC2=O (some centres unmarked) [I-1123]
Return: 2.46
